The origin of these recorded values is PubChem BioAssay (NCI).

# Tested on: UO-31 renal
# Measurement protocol: NCI tumour cell line growth inhibition, 48 h; in the data active means GI50 below about 0.43 µM; inactive means the rest
Answer with one of the outcomes active, inactive

Worked examples follow.
O=C(O)c1ccc(NCn2nc(-c3ccccc3O)oc2=S)cc1O; inactive
CN1CCN(C(=O)OCc2nc3c(N4CCOCC4)nc(-c4ccccc4)nc3n2C)CC1; active
O=C(CSc1nc2ccc([N+](=O)[O-])cc2[nH]1)Nc1ccc([N+](=O)[O-])cc1; inactive

Input line: So what was the verdict on `CC(C)[C@]12O[C@H]1[C@@H]1O[C@]13[C@]1(O[C@H]1C[C@H]1C4=C(CC[C@@]13C)C(=O)OC4)[C@@H]2OC(=O)OC(C)(C)C` in this test?
Output line: active

Input line: And what about the compound `O=C(/C=C/c1cccnc1)c1ccccc1` ?
Output line: inactive

Input line: And what about the compound `COc1cc2cc(Oc3ccc(NC(=O)Nc4ccc(F)c(C(F)(F)F)c4)cc3)c(C)nc2cc1OCCN1CCOCC1` ?
Output line: inactive

Input line: And what about the compound `Cc1cn2c(/C=N/NC3=NCCN3)c(-c3ccc(Cl)c([N+](=O)[O-])c3)nc2s1` ?
Output line: inactive

====

# Test system: SN12C renal
# Measurement protocol: NCI tumour cell line growth inhibition, 48 h
Measurement name: TGI (µM)
Give a bare numeral; the unit µM is implied.

Input line: What does the data say about its TGI? Entry: `CCCCN(CCCC)C1(c2cc3ccccc3s2)CCCCC1`
Output line: 36.6

Input line: And what about the compound `COc1cc2c3c(n(CCCNC(C)(C)CO)c(=O)c2cc1OC)-c1cc2c(cc1C3=O)OCO2` ?
Output line: 2.65

Input line: And what about the compound `O=C(CSc1nc2ccc([N+](=O)[O-])cc2[nH]1)Nc1ccc([N+](=O)[O-])cc1` ?
Output line: 10.6

====

Measured TGI by item
# System: DMS 273 small cell lung
# Measurement protocol: NCI tumour cell line growth inhibition, 48 h

Input line: What does the data say about its TGI? Entry: OCC(O)COc1ccc(F)cc1 (stereo not given)
Output line: > 100 µM

Input line: And what about the compound N#CC(NNC(=O)Cc1ccccc1)c1ccc(O)cc1 (stereo not given) ?
Output line: > 100 µM

Input line: And what about the compound `Cc1cc2c(cc1C)[n+](=O)c(C(=O)CC(=O)C(=O)Nc1ccccc1C)c(C)n2[O-]` ?
Output line: > 100 µM

Input line: And what about the compound `Cc1cc2c(=O)cc(-c3ccc(C(=O)O)cc3)oc2c(C(N)=O)c1C` ?
Output line: > 100 µM

Input line: And what about the compound `CNc1cccc(-c2cc(=O)c3cc4c(cc3[nH]2)OCO4)c1` ?
Output line: 16.9 µM

====

Measured TGI by item
# System: MDA-N
# Measurement protocol: NCI tumour cell line growth inhibition, 48 h
Give a bare numeral; the unit µM is implied.

The examples below pair each entry with its known result.
CCOC(=O)C(CC(C)C)NC(=O)C(N)Cc1ccc(N(CCCl)CCCl)cc1 (centres undefined); 26.1
CC(C)c1ccc2c(c1)CCC1C(C)(CN)CCCC21C (centres undefined); 2.86
Oc1c(Nc2ccccc2)cc2c3c1N=NC=3CCN=2; 31.7

Let us examine a further case.
Input line: What does the data say about its TGI? Entry: `Nc1ccc(-c2nnc(-c3c(Cl)c(Cl)c(Cl)c(Cl)c3-c3nc4ccc(C(=O)c5ccccc5)cc4[nH]3)o2)cc1`
Output line: 19

====

# System: HL-60(TB) leukemia
# Measurement protocol: NCI tumour cell line growth inhibition, 48 h; in the data active = GI50 below about 0.43 µM; inactive = the rest
Answer with one of the outcomes active, inactive

COC(=O)Nc1nc2ccc(C(=O)C3CC3)cc2[nH]1; inactive
NNC(=S)N/N=C/c1ccccn1; inactive
CCN1C2=C(SC(=S)C1=C1SC(C(=O)c3ccccc3)=C(C(=O)c3ccccc3)S1)SC(=Nc1ccccc1)C2=O; inactive
COc1cc2c3c(n(CCCNC(C)(C)CO)c(=O)c2cc1OC)-c1cc2c(cc1C3=O)OCO2; inactive

As a next step, examine the compound that follows.
Input line: So what was the verdict on `Cl.Fc1c[c-]c(-c2ccccn2)c(F)c1.[Pt].c1ccc([PH+](c2ccccc2)c2ccccc2[PH+](c2ccccc2)c2ccccc2)cc1` in this test?
Output line: active

====

# Test system: HOP-62 NSCLC
# Measurement protocol: NCI tumour cell line growth inhibition, 48 h; in the data active means GI50 below about 0.43 µM; inactive means the rest
Answer with one of the outcomes YES = active, NO = inactive

Worked examples follow.
CC(=O)NS(=O)(=O)c1ccc(-n2nc(-c3ccccc3)cc2-c2cc(O)ccc2O)cc1; NO
Cc1cn2c(/C=N/NC3=NCCN3)c(-c3ccc(Cl)c([N+](=O)[O-])c3)nc2s1; NO
CC12OC(C(=O)C13CC3)C1C(=O)c3cccc(O)c3C(=O)C12 (stereo not given); NO
CN(CCNc1ccc(C(=N)N)cc1)c1ccc(C(=N)N)cc1; NO

As a next step, examine the compound that follows.
Input line: So what was the verdict on `CC(C)[C@]12O[C@H]1[C@@H]1O[C@]13[C@]1(O[C@H]1C[C@H]1C4=C(CC[C@@]13C)C(=O)OC4)[C@@H]2OC(=O)OC(C)(C)C` in this test?
Output line: YES

====

# Tested on: HT29 colon
# Measurement protocol: NCI tumour cell line growth inhibition, 48 h
Measurement name: log10(TGI) (log10 of the value in µM)
Recall that a logarithmic scale is used here: each number is log10 of TGI in µM.

The examples below pair each entry with its known result.
CC[n+]1c(/C=C/c2ccc(N3CCCC3)cc2)cccc1/C=C/c1ccc(N2CCCC2)cc1; -0.43
Cc1ccc(OC2CC(n3cnc4c(=O)[nH]c(Br)nc43)OC2Oc2ccc(C)cc2)cc1 (stereo unspecified); 1.92
NCCSC1(O)C(=O)c2ccccc2-c2ccccc21 (stereo unspecified); 0.58
COc1ccc2c(c1)OC(N)=C(C#N)C2c1ccc(F)c(F)c1 (stereo unspecified); 0.68

Input line: What does the data say about its log10(TGI)? Entry: `O=C1/C(=C\c2ccc(Cl)cc2)CN(C(=O)c2ccccc2)C/C1=C\c1ccc(Cl)cc1`
Output line: 0.70

Input line: And what about the molecule `S=c1sc2sc(=S)sc2s1` ?
Output line: 1.90

Input line: And what about the molecule `Nc1ccc(-c2nnc(-c3c(Cl)c(Cl)c(Cl)c(Cl)c3-c3nc4ccc(C(=O)c5ccccc5)cc4[nH]3)o2)cc1` ?
Output line: 1.61

Input line: And what about the molecule CCC1CN2CCc3cc(OC)c(OC)cc3C2CC1CC1c2cc(OC)c(OC)cc2CCN1C(=O)C(Cc1c[nH]c2ccccc12)NC(=O)OC(C)(C)C (stereo unspecified) ?
Output line: 0.60

Input line: And what about the molecule `CCCC(c1cc(C(C)(C)C)c(O)cc1C)c1cc(C(C)(C)C)c(O)cc1C` ?
Output line: 1.24

Input line: And what about the molecule OC1CCC(COC(c2ccccc2)(c2ccccc2)c2ccccc2)O1 (stereo unspecified) ?
Output line: 1.53

====

# Test system: BT-549 breast
# Measurement protocol: NCI tumour cell line growth inhibition, 48 h; in the data active means GI50 below about 0.43 µM; inactive means the rest
Answer with one of the outcomes True for active, False for inactive

Worked examples follow.
CC12OC(C(=O)C13CC3)C1C(=O)c3cccc(O)c3C(=O)C12 (centres undefined); False
N#C/C(=C\c1ccc([N+](=O)[O-])cc1)n1nnc2cc(F)c(F)cc21; False
O=C(NC(=S)Nc1ccc(-c2nc3ccccc3[nH]2)cc1)c1ccc2ccccc2c1; False
CCN1C2=C(SC(=S)C1=C1SC(C(=O)c3ccccc3)=C(C(=O)c3ccccc3)S1)SC(=Nc1ccccc1)C2=O; False

Input line: So what was the verdict on `Cc1cc(S(=O)(=O)Nc2n[nH]c(-c3ccc(Cl)cc3)c2C#N)c(S)cc1Cl` in this test?
Output line: False

Input line: And what about the compound `O=C(NCCCNc1cc(-c2cn(-c3ccccc3)nc2-c2cccc(O)c2)ccn1)c1ccc(F)cc1` ?
Output line: False

====

# Tested on: SW-620 colon
# Measurement protocol: NCI tumour cell line growth inhibition, 48 h; in the data active means GI50 below about 0.43 µM; inactive means the rest
Answer with one of the outcomes active, inactive

Clc1ccc(Nc2ncnc3ccccc23)cc1; inactive
CC[C@@]1(O)C(=O)OCc2c1cc1n(c2=O)Cc2cc3c(OC)cccc3nc2-1; active

As a next step, examine the molecule that follows.
Input line: So what was the verdict on `N#C/C(=C\c1ccc([N+](=O)[O-])cc1)n1nnc2cc(F)c(F)cc21` in this test?
Output line: inactive

====

# Tested on: IGROV1 ovarian
# Measurement protocol: NCI tumour cell line growth inhibition, 48 h
Measurement name: TGI

O=C1C2=C(c3ccccc31)C(c1ccccc1Cl)NC(=S)N2 (stereo unspecified); > 100 µM

Input line: What does the data say about its TGI? Entry: `Cc1ccc([I+]c2ccc(C)cc2)cc1`
Output line: > 100 µM

Input line: And what about the compound `CCCc1c(O)c2ccccc2[nH]c1=O` ?
Output line: > 100 µM
